Each recorded value in this set is attributed to patent US6506772B1.

target: human adenosine A2A receptor (Homo sapiens, UniProt P29274); construct: expressed in transfected cells; host or cells: CHO cells, Semliki Forest virus expression system; membrane preparation; assay: Human adenosine A2A receptor [3H]-SCH-58261 binding assay; details: affinity to human adenosine A2A receptor; read-out: Ki HA2A
Sequence (P29274 whole entry): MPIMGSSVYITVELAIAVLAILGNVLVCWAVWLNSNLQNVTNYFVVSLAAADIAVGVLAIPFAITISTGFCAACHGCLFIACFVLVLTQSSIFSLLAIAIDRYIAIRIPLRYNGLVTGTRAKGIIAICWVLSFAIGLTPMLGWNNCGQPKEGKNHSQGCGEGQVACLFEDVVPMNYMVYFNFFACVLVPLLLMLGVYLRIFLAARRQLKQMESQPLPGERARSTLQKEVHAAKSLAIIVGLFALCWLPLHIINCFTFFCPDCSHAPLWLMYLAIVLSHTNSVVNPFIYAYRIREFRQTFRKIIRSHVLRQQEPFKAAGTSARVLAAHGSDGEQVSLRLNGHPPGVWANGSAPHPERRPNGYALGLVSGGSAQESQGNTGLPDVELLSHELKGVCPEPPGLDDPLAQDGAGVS
MEASURE: Ki (nM)

{"COMPOUND": "Cc1ccc(-c2nc3cc(C(=O)NC(C)c4ccccc4)cc(N)n3n2)o1 (stereo not drawn) [Example 211]", "ASSAY TARGET": "human adenosine A2A receptor (Homo sapiens, UniProt P29274)", "MEASURE": "Ki", "TEST RESULT": 57.3}
{"COMPOUND": "COc1ccccc1CCNC(=O)c1cc(N)n2nc(-c3ccccn3)nc2c1 [Example 45]", "ASSAY TARGET": "human adenosine A2A receptor (Homo sapiens, UniProt P29274)", "MEASURE": "Ki", "TEST RESULT": 53.5}
{"COMPOUND": "Nc1cc(C(=O)NCc2ccccc2Cl)cc2nc(-c3ccccc3)nn12 [Example 218]", "ASSAY TARGET": "human adenosine A2A receptor (Homo sapiens, UniProt P29274)", "MEASURE": "Ki", "TEST RESULT": 47.2}
